Data credit: the supplement of paper PMC12420376

# key: entry, value: drug sensitivity score
system: OVCAR8; test: drug sensitivity score (DSS2) on cancer cell count; higher = more sensitive; extreme values may be limits of the assay; conditions: co-cultured fibroblast: WI38; 72 h
Give your result in DSS as a bare value.

Study these solved cases before continuing.
CN(C)Cc1c(C(=O)NCCOc2ccc(C(=O)NO)cc2)oc2ccccc12
18.5
COc1cccc(-c2ccc(NC(=O)C3=C(C(=O)O)CCC3)c(F)c2)c1
1.6
CC(C)[C@H](C(=O)Nc1ccc(C(=O)NO)cc1)c1ccccc1
15.3
CC(C)(C)c1nc(-c2cccc(NS(=O)(=O)c3c(F)cccc3F)c2F)c(-c2ccnc(N)n2)s1
15.2
Clc1ccc(Nc2nnc(Cc3ccncc3)c3ccccc23)cc1
0

Ask | Reported drug sensitivity score for CCOc1ccn(-c2ccc(F)cc2)c(=O)c1C(=O)Nc1ccc(Oc2ccnc(N)c2Cl)c(F)c1 : what is it?
Reply | 0

Ask | Quick one: drug sensitivity score of CON(C)C(=O)N1N=C(c2cc(F)ccc2F)S[C@@]1(CCCN)c1ccccc1 ?
Reply | 32.9

Ask | Entry CCc1cc2c(cc1N1CCC(N3CCOCC3)CC1)C(C)(C)c1[nH]c3cc(C#N)ccc3c1C2=O has what drug sensitivity score?
Reply | 0

Ask | Which measured drug sensitivity score value corresponds to CN1CCc2c(c3ccccc3n2Cc2ccc(C(=O)NO)cc2)C1 ?
Reply | 4.3

###

test system: KURAMOCHI; assay: drug sensitivity score (DSS2) on cancer cell count; higher = more sensitive; extreme values may be limits of the assay; details: co-cultured fibroblast: BJHTERT; 72 h
Quantity: drug sensitivity score (DSS)
Only the number, expressed in DSS, is required.

C[C@]1(O)C[C@@H](c2nc(-c3ccc4ccc(-c5ccccc5)nc4c3)c3c(N)nccn32)C1 [Linsitinib]
0
C[C@@H]1COC(Nc2ccc3ncnc(Nc4ccc(OCc5nccs5)c(Cl)c4)c3c2)=N1 [Varlitinib]
1.5
Cc1c(F)cc(C(=O)NC2CC2)cc1-c1ccc(C(=O)NCC(C)(C)C)cn1 [Losmapimod]
2.4
CN[C@@H]1C[C@H]2O[C@@](C)([C@@H]1OC)n1c3ccccc3c3c4c(c5c6ccccc6n2c5c31)C(=O)N[C@H]4O [UCN-01]
17
Nc1nc(Cl)nc2c1ncn2[C@@H]1O[C@H](CO)[C@@H](O)[C@@H]1F [Clofarabine]
13
CNC(=O)c1nn(C)c2c1C(C)(C)Cc1cnc(Nc3ccc(N4CCN(C)CC4)cc3)nc1-2 [Milciclib]
11.2
Cc1ccc(Nc2nccc(N(C)c3ccc4c(C)n(C)nc4c3)n2)cc1S(N)(=O)=O [Pazopanib]
2

Now turn to the next molecule.
Ask | Bench note: what drug sensitivity score did CC1(C)NC(=O)N(c2ccc([N+](=O)[O-])c(C(F)(F)F)c2)C1=O [Nilutamide] show?
Reply | 0

###

tested on: KURAMOCHI; assay: drug sensitivity score (DSS2) on cancer cell count; higher = more sensitive; extreme values may be limits of the assay; conditions: co-cultured fibroblast: WI38; 72 h
Overview of recorded drug sensitivity score for various compounds
Number only, in DSS; omit the unit.

Ask | # input compound: COc1cc(C)[nH]c(=O)c1CNC(=O)c1c(C)n([C@H](C)C2CCOCC2)c2ccccc12 [CPI-360] ; wanted: its drug sensitivity score
Reply | 5.4

Ask | Item NC(=S)N/N=C/c1ncccc1N [Triapine] has what recorded drug sensitivity score?
Reply | 6.3

Ask | I would be grateful if you could share the reported drug sensitivity score for CCOc1ccccc1-n1c(C(C)N2CCN(C(=O)COc3ccc(Cl)cc3)CC2)nc2ccccc2c1=O (stereo unspecified) [Erastin] .
Reply | 3.9

Ask | Looking for the measured drug sensitivity score of N#CC1(c2ccc(NC(=O)c3cccnc3NCc3ccncc3)cc2)CCCC1 [Apatinib] , can you help?
Reply | 0

Ask | What value of drug sensitivity score has been recorded for this entry: CCN(CC)CCN(Cc1ccc(-c2ccc(C(F)(F)F)cc2)cc1)C(=O)Cn1c(SCc2ccc(F)cc2)nc(=O)c2c1CCC2 [Darapladib]
Reply | 0

Ask | // drug sensitivity score lookup, key: CC[C@]1(O)C[C@@H]2CN(CCc3c([nH]c4ccccc34)[C@@](C(=O)OC)(c3cc4c(cc3OC)N(C)[C@H]3[C@@](O)(C(=O)OC)[C@H](OC(C)=O)[C@]5(CC)C=CCN6CC[C@]43[C@@H]65)C2)C1 [Vinblastine]
Reply | 4.2
